System: P94_40
assayName: qHTS profiling for inhibitors of Plasmodium falciparum proliferation (AID 504749); note: nearly all actives have a fitted effect of over 60% in size
conditionDescription: P. falciparum in erythrocytes, SYBR Green DNA, 72 h; series mostly up to 12.8 µM
Results filed as inconclusive are left out. Calls of active or inactive are those of the source. Calls come from the whole dose curve; as a rule, active = well fitted inhibition curve with a large enough effect; inconclusive = small, poorly fitted or top-dose-only effect; inactive = flat fitted curve, though single readings scatter.
Response enum: Yes = active, No = inactive

Example cases with answers are listed next.
compound	assignedLabel
CC1(C)OC2CO[C@]3(COS(N)(=O)=O)OC(C)(C)OC3C2O1 (stereo not given in full)	No
CC=C(/C(=C/C)c1ccc(O)cc1)c1ccc(O)cc1	No
NC[C@@H]1O[C@H](O[C@H]2[C@H](O)[C@H](O[C@@H]3O[C@H](CO)[C@@H](O)[C@H](N)[C@@H]3O)[C@@H](N)C[C@H]2N)[C@@H](O)[C@H](O)[C@@H]1O	No

## Input Field: outcome | Entry: NC(=O)c1ccc[n+]([C@@H]2O[C@H](COP(=O)([O-])OP(=O)(O)OC[C@H]3O[C@@H](n4cnc5c(N)ncnc54)[C@@H](O)[C@@H]3O)[C@@H](O)[C@@H]2O)c1
## Output No

## Input What do we get for CCN(CC)CCOC(=O)[C@@H](Cc1cccc2ccccc12)C[C@@H]1CCCO1 ?
## Output No

## Input Would you kindly repeat that for NC(=O)c1cc[n+](CC2=C(C(=O)[O-])N3C(=O)[C@@H](NC(=O)Cc4cccs4)[C@@H]3SC2)cc1 ?
## Output No

## Input Next entry: C[N+]12CCC(CC1)[C@@H](OC(=O)C(O)(c1ccccc1)c1ccccc1)C2
## Output No

## Input Likewise for CC[C@@H]1OC(=O)[C@H](C)[C@H](O[C@@H]2C[C@](C)(OC)[C@H](O)[C@H](C)O2)[C@H](C)[C@H](O[C@@H]2O[C@@H](C)C[C@@H](N(C)C)[C@@H]2O)[C@](C)(O)C[C@H](C)C(=NOCOCCOC)[C@H](C)[C@H](O)[C@]1(C)O ?
## Output No

====

studyTarget: Rap guanine nucleotide exchange factor 3 (Homo sapiens) (UniProt O95398)
Sequence (O95398 whole entry, looked up): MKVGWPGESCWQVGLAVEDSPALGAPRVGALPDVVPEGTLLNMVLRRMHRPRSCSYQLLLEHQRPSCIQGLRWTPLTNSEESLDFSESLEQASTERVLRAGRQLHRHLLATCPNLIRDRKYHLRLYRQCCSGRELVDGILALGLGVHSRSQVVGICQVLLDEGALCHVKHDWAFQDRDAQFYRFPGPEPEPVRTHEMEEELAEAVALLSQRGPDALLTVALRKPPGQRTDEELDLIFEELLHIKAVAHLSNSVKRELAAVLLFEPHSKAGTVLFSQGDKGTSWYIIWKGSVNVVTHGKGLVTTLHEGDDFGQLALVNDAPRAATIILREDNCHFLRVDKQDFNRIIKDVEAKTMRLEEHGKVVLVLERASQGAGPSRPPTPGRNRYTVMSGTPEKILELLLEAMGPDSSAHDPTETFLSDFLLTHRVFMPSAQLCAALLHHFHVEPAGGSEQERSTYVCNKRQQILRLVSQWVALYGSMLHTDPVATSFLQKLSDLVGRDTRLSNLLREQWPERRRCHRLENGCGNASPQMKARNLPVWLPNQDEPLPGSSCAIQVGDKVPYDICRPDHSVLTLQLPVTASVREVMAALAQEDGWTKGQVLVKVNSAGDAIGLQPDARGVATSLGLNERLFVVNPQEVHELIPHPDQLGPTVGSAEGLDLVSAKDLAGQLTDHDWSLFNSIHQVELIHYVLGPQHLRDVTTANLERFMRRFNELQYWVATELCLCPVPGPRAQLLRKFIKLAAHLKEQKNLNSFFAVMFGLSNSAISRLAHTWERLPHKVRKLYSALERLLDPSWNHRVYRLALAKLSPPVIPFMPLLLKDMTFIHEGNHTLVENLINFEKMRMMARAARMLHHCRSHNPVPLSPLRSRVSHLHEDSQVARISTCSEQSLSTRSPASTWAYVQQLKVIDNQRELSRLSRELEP
assayName: Confirmatory qHTS for agonist of cAMP-regulated guanine nucleotide exchange factor 3 (EPAC1) (AID 1645881);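 note: EPAC1 catalysed release of BODIPY-GDP from Rap1B seen as fluorescence loss; nearly all actives have a fitted effect of over 75% in size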
conditionDescription: EPAC1 Rap1B BODIPY-GDP exchange fluorescence; series mostly up to 154 µM
Records with an inconclusive call do not appear. Activity calls are given as the source filed them. Calls follow the shape of the dose curve; as a rule, active = well fitted activation curve with a large enough effect; inconclusive = small, poorly fitted or top-dose-only effect; inactive = no such curve, though single readings can be large or run the other way.
Reply using exactly one outcome from true (active), false (inactive)

Example entries begin here.
                                   molecule  assignedlabel
0  COc1cc2c(-c3ccc4c(c3)OCO4)c(-c3ccsc3)oc(=O)c2cc1OC          false
1   Cc1ccccc1C(=O)NCC(=O)N1CCN(c2ccccn2)CC1          false
2  Cc1ccc(C(=O)Nc2ccc(N3CCOCC3)c3nonc23)cc1[N+](=O)[O-]          false

## Input What classification did CCOc1ccc(NC(=O)CN(C)C(=O)c2ccccc2SCc2c(C)noc2C)cc1OCC end up with in this test?
## Output false

## Input And the next one, Cc1cc(S(=O)(=O)Nc2ccccc2C)ccc1F ?
## Output false

## Input Try the molecule CCCCCn1c(C)c2c(OCC)cccc(=O)c2c1C
## Output false

## Input And the next one, CN(C)c1ccc(C(O)c2cc3ccccc3s2)cc1 (centres undefined) ?
## Output false

## Input Okay, and COc1ccc(SC[C@H](C)CN2CC[C@H](C)CCC2=O)cc1 ?
## Output false

## Input What do you get for O=C(NCc1ccccc1)c1ccc2nc(-c3ccco3)c(-c3ccco3)nc2c1 ?
## Output false
